- Test system: CAL-51 cells
- Assay Name: CAL-51 Cell Proliferation Assay
- Format: cell-based
- Condition Label: minimal percent of DMSO control observed in the concentrations tested (Ymin-obs), 120 hours
// reported CAL-51 Prolif Ymin for each item listed
Enter the number alone.

Record excerpt, results attached:
Given the compound O=C1CCC(N2Cc3cc(Cn4ncc5c(-c6ccc(C(F)(F)F)cc6Cl)cc(N6CC(F)C6)nc54)ccc3C2=O)C(=O)N1 (stereo not shown) [Example 48] and test system CAL-51 cells, the measured CAL-51 Prolif Ymin is 19.89

Given the compound O=C1CCC(N2Cc3cc(Cn4ncc5c(-c6ncccc6Cl)c(Cl)c(N6CC(F)C6)nc54)ccc3C2=O)C(=O)N1 (stereo not shown) [Example 38] and test system CAL-51 cells, the measured CAL-51 Prolif Ymin is 21.89

Given the compound CCc1cc2c(-c3ncc(C(F)(F)F)cc3Cl)cc(N3CC(F)C3)nc2n1Cc1ccc2c(c1)CN(C1CCC(=O)NC1=O)C2=O (stereo not shown) [Example 16] and test system CAL-51 cells, the measured CAL-51 Prolif Ymin is 81.53

Given the compound CCOc1cnc(-c2cc(N3CC(F)C3)nc3c2cnn3Cc2ccc3c(c2)CN(C2CCC(=O)NC2=O)C3=O)c(C#N)c1 (stereo not shown) [Example 46] and test system CAL-51 cells, the measured CAL-51 Prolif Ymin is 30.10

Lab note: next compound to report on.
Given the compound O=C1CC[C@H](N2Cc3cc(Cn4ncc5c(-c6ncc(OC(F)F)cc6Cl)cc(N6CC(F)C6)nc54)ccc3C2=O)C(=O)N1 [Example 49] and test system CAL-51 cells, the measured CAL-51 Prolif Ymin is 23.11

====

- Tested on: CAL-51 cells
- Assay Name: CAL-51 Cell Proliferation Assay
- Type: cell-based
- Condition Label: minimal percent of DMSO control observed in the concentrations tested (Ymin-obs), 120 hours
Quantity: CAL-51 Prolif Ymin

Entry Cc1cc(OC(C)C)cnc1-c1cc(N2CC(F)C2)nc2c1cnn2Cc1ccc2c(c1)CN(C1CCC(=O)NC1=O)C2=O (stereo not drawn) [Example 80] ; CAL-51 Prolif Ymin = 27.48

Entry O=C1CC[C@H](N2Cc3cc(Cn4ncc5c(-c6ncc(C(F)(F)F)cc6Cl)cc(N6CC[C@H](CCO)C6)nc54)ccc3C2=O)C(=O)N1 [Example 145] ; CAL-51 Prolif Ymin = 66.44

Entry Cc1cc(C#N)cnc1-c1cc(N2CC(F)C2)nc2c1cnn2Cc1ccc2c(c1)CN(C1CCC(=O)NC1=O)C2=O (stereo not drawn) [Example 91] ; CAL-51 Prolif Ymin = 24.52

Entry CN(c1cc(-c2ncc(C(F)(F)F)cc2Cl)c2cnn(Cc3ccc4c(c3)CN([C@H]3CCC(=O)NC3=O)C4=O)c2n1)[C@H]1C[C@H](O)C1 [Example 81] ; CAL-51 Prolif Ymin = 38.16

Entry O=C1CC[C@H](N2Cc3cc(Cn4ncc5c(-c6ncc(CF)cc6Cl)cc(N6CC(F)C6)nc54)ccc3C2=O)C(=O)N1 [Example 72] ; CAL-51 Prolif Ymin = 23.41

Lab note: next molecule to report on.
Entry CC(C)Nc1nc2c(cnn2Cc2ccc3c(c2)CN([C@H]2CCC(=O)NC2=O)C3=O)c(-c2ncc(F)cc2Cl)c1F (single isomer, unassigned) [Example 9] ; CAL-51 Prolif Ymin = 22.89

====

- Target Of Assay: FAK (Homo sapiens, UniProt Q05397)
- Construct: homozygous knock-in of a HiBiT tag (Promega Corporation, Madison, WI) to the C-terminus of the FAK gene in its natural genomic locus; endogenous in cells; host or cells: JHH-4-FAK-HiBiT clone d01 (CRISPR-Cas9 knock-in at the endogenous locus)
- Sequence (Q05397 whole entry): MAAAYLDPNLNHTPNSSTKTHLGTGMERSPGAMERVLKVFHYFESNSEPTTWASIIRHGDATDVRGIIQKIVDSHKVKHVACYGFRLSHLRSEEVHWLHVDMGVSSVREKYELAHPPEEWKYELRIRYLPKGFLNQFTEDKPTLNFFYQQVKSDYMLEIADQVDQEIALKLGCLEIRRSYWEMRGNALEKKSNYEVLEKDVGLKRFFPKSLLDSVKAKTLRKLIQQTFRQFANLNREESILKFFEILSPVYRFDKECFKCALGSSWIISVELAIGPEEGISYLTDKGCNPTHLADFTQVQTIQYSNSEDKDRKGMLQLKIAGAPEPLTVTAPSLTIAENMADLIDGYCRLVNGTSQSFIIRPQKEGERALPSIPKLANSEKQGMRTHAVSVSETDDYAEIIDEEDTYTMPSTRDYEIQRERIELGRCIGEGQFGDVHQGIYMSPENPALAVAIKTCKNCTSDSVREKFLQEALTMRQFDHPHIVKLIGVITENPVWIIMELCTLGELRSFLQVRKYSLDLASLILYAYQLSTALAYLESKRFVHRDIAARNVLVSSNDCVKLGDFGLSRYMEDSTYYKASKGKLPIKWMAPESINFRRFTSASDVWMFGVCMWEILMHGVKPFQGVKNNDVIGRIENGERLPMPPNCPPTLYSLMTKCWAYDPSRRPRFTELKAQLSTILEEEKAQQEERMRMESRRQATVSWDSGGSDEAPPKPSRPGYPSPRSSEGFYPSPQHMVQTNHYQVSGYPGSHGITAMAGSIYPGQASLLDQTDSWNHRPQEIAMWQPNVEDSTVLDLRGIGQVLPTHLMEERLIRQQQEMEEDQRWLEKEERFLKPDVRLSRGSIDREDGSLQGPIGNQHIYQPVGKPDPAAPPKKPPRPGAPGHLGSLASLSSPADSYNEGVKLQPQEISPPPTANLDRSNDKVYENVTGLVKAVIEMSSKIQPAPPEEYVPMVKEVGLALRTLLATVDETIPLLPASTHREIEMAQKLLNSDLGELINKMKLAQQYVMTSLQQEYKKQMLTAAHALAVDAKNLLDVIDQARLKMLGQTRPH
- Assay Name: FAK-HiBiT Degradation Assay
- Assay type: cell-based
- Condition Label: JHH-4-FAK-HiBiT clone d01 cells; two hours incubation; 10-point dose response, 3-fold dilution starting at 1 μM; Nano-Glo HiBiT luminescence; read-out: FAK HiBiT EC50
Define the label as rule met when DC50 is strictly less than 9 nM and as rule not met in all remaining cases.

Exercise: Does this compound meet the criterion DC50 < 9 nM? Cc1cc(Cl)cnc1-c1cc(N2CC(F)C2)nc2c1cnn2Cc1ccc2c(c1)CN([C@H]1CCC(=O)NC1=O)C2=O [Example 50]
Solution: rule met

Exercise: Does this compound meet the criterion DC50 < 9 nM? CCc1cc2c(-c3ncc(C(F)(F)F)cc3Cl)cc(N3CC(F)C3)nc2n1Cc1ccc2c(c1)CN(C1CCC(=O)NC1=O)C2=O (stereo not drawn) [Example 16]
Solution: rule not met

Exercise: Does this compound meet the criterion DC50 < 9 nM? CC(C)Nc1nc2c(cnn2Cc2ccc3c(c2)CN([C@H]2CCC(=O)NC2=O)C3=O)c(-c2ncc(F)cc2Cl)c1F (single isomer, unassigned) [Example 9]
Solution: rule met

Exercise: Does this compound meet the criterion DC50 < 9 nM? Cc1nc2c(-c3ncc(F)cc3Cl)cc(N3CC(F)C3)nc2n1Cc1ccc2c(c1)CN(C1CCC(=O)NC1=O)C2=O (stereo not drawn) [Example 24]
Solution: rule not met

Now consider a different compound.
Exercise: Does this compound meet the criterion DC50 < 9 nM? CN(C)c1nc(-c2ccc(C#N)cc2Cl)c2ccn(Cc3ccc4c(c3)CN(C3CCC(=O)NC3=O)C4=O)c2n1 (stereo not drawn) [Example 27]
Solution: rule met
